The origin of these recorded values is the OPERA property sets (Mansouri et al. 2018).

Readings of logP for the listed compounds
Just the number, please, no unit attached.

Before answering, review these 3 worked examples.
                compound  recorded_number
0                    FCF              0.2
1  OC12CC3CC(CC(C3)C1)C2             2.14
2      CCCCCCCc1nn[nH]n1             2.01

Exercise: Check the records and state logP for C1=C(c2ccccc2)CCCC1
Key: 4.53

Exercise: Check the records and state logP for COC(=O)c1ccccn1
Key: 0.36

Exercise: Check the records and state logP for CC(=O)C(=Cc1ccccc1)C(C)=O
Key: 1.59

Exercise: Check the records and state logP for O=C(O)c1ccc(Oc2ccccc2)cc1
Key: 3.91

Exercise: Check the records and state logP for Cc1ccccc1NS(=O)(=O)c1ccc(N)cc1
Key: 2.03

Exercise: Check the records and state logP for NS(=O)(=O)NCCc1ccccc1
Key: 0.81

Exercise: Check the records and state logP for NCCCCCc1cccnc1
Key: 1.41

Exercise: Check the records and state logP for CCCOC(=O)c1ccccc1
Key: 3.01

Exercise: Check the records and state logP for O=C(O)c1ccccc1Oc1ccccc1
Key: 3.11

Exercise: Check the records and state logP for c1ccc2c(c1)CCC2
Key: 3.18

Exercise: Check the records and state logP for CCCNC(=O)c1cccnc1
Key: 0.66

Exercise: Check the records and state logP for Nc1cccc2cccnc12
Key: 1.79

Exercise: Check the records and state logP for O=NN(CCCl)C(=O)NC1CC2CCC1C2 (stereo unspecified)
Key: 2.98
